Hello, the source for this data is patent US20080181886A1, in case you need it.

Provide the reported F' BAFF of each item.
# test-system: human BAFF (human, UniProt Q9Y275 82-285, limits assumed)
# Sequence (Q9Y275 82-285 limits assumed): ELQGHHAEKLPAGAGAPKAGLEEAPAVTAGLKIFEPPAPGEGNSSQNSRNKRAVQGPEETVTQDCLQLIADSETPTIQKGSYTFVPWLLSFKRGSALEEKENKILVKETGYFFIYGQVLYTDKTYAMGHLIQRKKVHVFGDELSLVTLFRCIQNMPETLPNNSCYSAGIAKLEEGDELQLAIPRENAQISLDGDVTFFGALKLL
# assay-comment: NNS library, phage display;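 note: ligand versus display occurrence-to-degeneracy ratio and higher means enriched by binding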
Numbers only.

Solved cases (3 shown):
1. SLSCRKEQGKFYDHLLRDCISCASDCGQHPKQCAYFCENKLR (receptor, phage library variant, format as m9) [TACI_d2 I92D]
0
2. SLSCRKEQGKSYDHLLRDCISCASICGQHPKQCAYFCENKLR (receptor, phage library variant, format as m9) [TACI_d2 F78S]
0
3. SLSCRKEQGKFYDHLLRDCISCASHCGQHPKQCAYFCENKLR (receptor, phage library variant, format as m9) [TACI_d2 I92H]
0

Need F' BAFF for each of these binders.
1. SLSCRKEQGKFYDHLLQDCISCASICGQHPKQCAYFCENKLR (receptor, phage library variant, format as m9) [TACI_d2 R84Q]
2. SLSCRKEQGKFYDHLLHDCISCASICGQHPKQCAYFCENKLR (receptor, phage library variant, format as m9) [TACI_d2 R84H]
3. SLSCRKEQGKFYDHLLKDCISCASICGQHPKQCAYFCENKLR (receptor, phage library variant, format as m9) [TACI_d2 R84K]

0
1
1
